# assayed system: HLA-A*3101 (human)
# experiment: competition with 125I-labelled standard peptide on purified HLA, gel filtration
# measurement parameters: remark: other sources report otherwise
Listed here are binders together with their documented binding affinity ratio (IC50 of standard peptide / IC50 of test peptide).
// print number alone

I would be grateful if you could share the reported binding affinity ratio (IC50 of standard peptide / IC50 of test peptide) for SAGPCALR (modifications not checked) [HBV X 65 8-mer peptide SAGPCALR (SEQ ID NO: 651)] .
0.0029

I would be grateful if you could share the reported binding affinity ratio (IC50 of standard peptide / IC50 of test peptide) for SAICSVVR (modifications not checked) [HBV POL 520 8-mer peptide SAICSVVR (SEQ ID NO: 652)] .
0.028

I would be grateful if you could share the reported binding affinity ratio (IC50 of standard peptide / IC50 of test peptide) for TLWKAGILYKR (modifications not checked) [HBV POL 150 11-mer peptide … (SEQ ID NO: 666)] .
0.1

I would be grateful if you could share the reported binding affinity ratio (IC50 of standard peptide / IC50 of test peptide) for TLPETTVVR (modifications not checked) [HBV NUC 171 9-mer peptide … (SEQ ID NO: 662)] .
0.0009

I would be grateful if you could share the reported binding affinity ratio (IC50 of standard peptide / IC50 of test peptide) for TAELLAACFAR (modifications not checked) [HBV POL 716 11-mer peptide … (SEQ ID NO: 661)] .
0.0066

With those in mind, consider the next binder.
I would be grateful if you could share the reported binding affinity ratio (IC50 of standard peptide / IC50 of test peptide) for TSAICSVVR (modifications not checked) [HBV POL 519 9-mer peptide … (SEQ ID NO: 667)] .
0.06
